MEASURED TARGET: T1, human CD19 on CD19(+) NALM6 acute lymphoid leukemia cells (UniProt P15391 20-556)
T1 chain: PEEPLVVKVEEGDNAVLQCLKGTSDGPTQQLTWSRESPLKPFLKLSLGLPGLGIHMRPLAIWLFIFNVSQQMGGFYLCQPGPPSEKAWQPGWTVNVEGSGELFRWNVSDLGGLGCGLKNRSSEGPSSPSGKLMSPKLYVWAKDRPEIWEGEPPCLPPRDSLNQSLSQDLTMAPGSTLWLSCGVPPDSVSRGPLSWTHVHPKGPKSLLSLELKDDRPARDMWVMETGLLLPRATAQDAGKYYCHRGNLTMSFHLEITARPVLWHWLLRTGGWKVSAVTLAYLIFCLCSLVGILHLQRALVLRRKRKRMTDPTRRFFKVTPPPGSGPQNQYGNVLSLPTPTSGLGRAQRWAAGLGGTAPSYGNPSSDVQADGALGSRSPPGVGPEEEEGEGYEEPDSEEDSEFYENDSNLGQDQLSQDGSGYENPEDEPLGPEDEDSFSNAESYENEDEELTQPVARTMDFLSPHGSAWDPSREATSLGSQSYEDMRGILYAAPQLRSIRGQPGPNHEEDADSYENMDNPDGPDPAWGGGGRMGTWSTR
EXPERIMENT SUMMARY: FACS
Overview of reported EC50 across a group of binders:
Supply the numeric figure in mg/L, leaving out any unit text.

Recorded results for 2 binders are shown here.
>>> measured("L1+H3 (antibody, V domains shown) VH: QVQLQESGPGLVKPSETLSLTCTVSGVSLPDYGVSWIRQPPGKGLEWIGVIWGSETTNYNPSLKSRLTISVDTSKNQFSLKMSSVTAADTAVYYCAKHYYYGGSYAMDYWGQGTSVTVSS VL: DIQMTQSPSSLSASVGDRVTITCRASQDISKYLNWYQQKPGKAVKLLIYHTSRLHTGVPSRFSGSGSGTDYTLTISSLQPEDIATYFCQQGNTLPYTFGGGTKLEIT")
0.37
>>> measured("L3+H7b (antibody, V domains shown) VH: QVQLQESGPGLVKPSETLSLTCTVSGVSLPDYGVSWIRQPPGKGLEWIGVIWGSETTYYNPSLKSRVTISKDTSKSQFSLKMSSVTAADTAVYYCAKHYYYGGSYAMDYWGQGTSVTVSS VL: DIQMTQSTSSLSASVGDRVTITCRASQDISKYLNWYQQKPGKAVKLLIYHTSRLHSGVPSRFSGSGSGTDYTFTISSLQPEDIATYYCQQGNTLPYTFGGGTKLEIT")
0.08

Pending binder:
Asked: Report measured EC50; entry is L3+H3 (antibody, V domains shown) VH: QVQLQESGPGLVKPSETLSLTCTVSGVSLPDYGVSWIRQPPGKGLEWIGVIWGSETTNYNPSLKSRLTISVDTSKNQFSLKMSSVTAADTAVYYCAKHYYYGGSYAMDYWGQGTSVTVSS VL: DIQMTQSTSSLSASVGDRVTITCRASQDISKYLNWYQQKPGKAVKLLIYHTSRLHSGVPSRFSGSGSGTDYTFTISSLQPEDIATYYCQQGNTLPYTFGGGTKLEIT
Given back: 0.64
